Origin of measurements: PubChem BioAssay

- ASSAY_SUMMARY: fission yeast growth modulation, primary screen, strain 972, OD600, 24 h, no modulator (AID 1090);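 further: basal condition with compound alone and no growth modifier present; test concentration not given here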
- EXPERIMENTAL_PARAMETERS: S. pombe 972 growth, higher = more signal, called active from +8 up or from −8 down
Categorized via z-score: low bin = under -0.3, mid bin = from -0.3 up to 0.3, high bin = 0.3 and over

Answered cases to consult:
[in] Category of CC(=O)O[C@H]1C2=CO[C@H](C)[C@H]3[C@H]4C5=C([C@H](O)[C@H]6O[C@H]6C5=O)[C@H](OC4C)[C@@]23C(=O)[C@@H]2O[C@@H]21 (stereo not given in full) :
[out] mid bin

[in] Next: O=C(NN=C1C[C@@H](O)[C@@H](O)[C@@H]2[C@@H]3C(=O)N(C4CCCCC4)C(=O)[C@@H]3CC[C@H]12)OCc1ccccc1
[out] mid bin

[in] Next: Cn1c(=O)n2n(c1=O)[C@H]1[C@H](O)[C@@H]3O[C@@H]3C(=O)[C@H]1CC2
[out] high bin

[in] Next: CO[C@H]1COC(=O)CC=C[C@H](C)COC(=O)[C@@H](C)NC(=O)CC=C[C@@H]1C
[out] low bin

Next:
[in] Category of CO[C@@H]1COC(=O)[C@H](CCSC)NC(=O)CC=C[C@@H](C)COC(=O)[C@H](C)NC(=O)CC=C[C@H]1C :
[out] mid bin

[in] Next: C[C@H]1Cc2c(COc3ccccc3)nc3c(c2CO1)CN(CCOc1ccccc1)CC3
[out] low bin

[in] Next: CCOC(=O)[C@H](CC(C)C)NC(=O)CCC1CC(OC(=O)NCCc2ccc(F)cc2)CC2(CCCC(COC(=O)NCC3CCCCC3)O2)O1 (stereo not given in full)
[out] high bin

[in] Next: COc1ccc(O[C@H]2C=C[C@@H](c3ccccc3)O[C@@H]2CON=C(C)CCC(=O)OC[C@H]2O[C@H](c3ccccc3)C=C[C@@H]2Oc2ccc(OC)cc2)cc1
[out] high bin

[in] Next: CC(C)CON=C1[C@H]2CCn3c(=O)n(Cc4cc5c(cc4Cl)OCO5)c(=O)n3[C@H]2[C@H](O)[C@@H]2O[C@H]12
[out] mid bin

====

Entries annotated with measured composite z-score
- System: Wnt5a (protein binding on small-molecule microarray)
- ASSAY_SUMMARY: Wnt5a binders on small-molecule microarray, primary screen, biophysical, 635/667 nm fluorescence (AID 1142);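 further: fluorescence read at 667 nm with signal to noise per printed feature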
- EXPERIMENTAL_PARAMETERS: 635 nm fluorescence, higher = more signal
Would you mind answering with just the numeric figure?

Please review the entries below; each comes with its answer.
[in] // composite z-score lookup, key: C#CCCCON=C1C[C@@H](O)[C@@H](O)[C@@H]2[C@@H]3C(=O)N(c4ccc(F)cc4F)C(=O)[C@@H]3CC[C@@H]12
[out] 0.09

[in] Next: O=C1[C@H]2[C@H]3[C@H](O)[C@H](O)CC(=NOCc4ccccc4)[C@@H]3CC[C@H]2C(=O)N1c1ccc(F)cc1F
[out] -0.0167

Next:
[in] // composite z-score lookup, key: CCC1=NOC(CCC2CC(OC(=O)NCc3cccc4c3OCO4)CC3(CCCC(COC(=O)NCCc4ccccc4OC)O3)O2)C1 (stereo unspecified)
[out] 0.196

[in] Next: Cc1cc2c(nc1C)CCCCN2CC(C)ON=C1[C@H]2CCn3c(=O)n(-c4ccccc4)c(=O)n3[C@H]2[C@H](O)[C@@H]2O[C@H]12 (stereo partly specified)
[out] 0.384

[in] Next: CO[C@H]1COC(=O)[C@H](C)NC(=O)[C@@H](C)COC(=O)[C@H]2CCCN2C(=O)CC=C[C@H]1C
[out] 0.139

[in] Next: CO[C@H]1COC(=O)[C@@H](C)COC(=O)[C@@H](OCc2ccccc2)C=C[C@@H]1C
[out] 0.007
